src = ChEMBL document CHEMBL4706634

Test: Stability in mouse plasma assessed as half life at 1.56 mM by RP-HPLC analysis
Format: ADME, cell-free
# cutoff 20 min applies to half-life at 1560 µM; >= gives class 1, < gives class 0

>  <smiles-record>
CSCC[C@H](NC(=O)[C@H](CS)NC(=O)[C@H](CCCNC(=N)N)NC(=O)[C@H](CCCNC(=N)N)NC(=O)[C@@H]1CCC(=O)N1)C(=O)N1CCC[C@H]1C(=O)N[C@@H](CC(C)C)C(=O)N[C@@H](Cc1c[nH]cn1)C(=O)N[C@@H](CO)C(=O)N[C@@H](CCCNC(=N)N)C(=O)N[C@H](C(=O)N1CCC[C@H]1C(=O)N[C@@H](Cc1ccccc1)C(=O)N1CCC[C@H]1C(N)=O)C(C)C

>  <discrete-label>
class 0

$$$$
>  <smiles-record>
CSCC[C@H](NC(=O)[C@H](CS)NC(=O)CC[C@H](NC(=O)CCOCCOCCOCCOCCOCCOCCN)C(=O)O)C(=O)N1CCC[C@H]1C(=O)N[C@@H](CC(C)C)C(=O)N[C@@H](Cc1c[nH]cn1)C(=O)N[C@@H](CO)C(=O)N[C@@H](CCCNC(=N)N)C(=O)N[C@H](C(=O)N1CCC[C@H]1C(=O)N[C@@H](Cc1ccccc1)C(=O)N1CCC[C@H]1C(N)=O)C(C)C

>  <discrete-label>
class 1

$$$$
>  <smiles-record>
CSCC[C@H](NC(=O)[C@@H](N)CS)C(=O)N1CCC[C@H]1C(=O)N[C@@H](CC(C)C)C(=O)N[C@@H](Cc1c[nH]cn1)C(=O)N[C@@H](CO)C(=O)N[C@@H](CCCNC(=N)N)C(=O)N[C@H](C(=O)N1CCC[C@H]1C(=O)N[C@@H](Cc1ccccc1)C(=O)N1CCC[C@H]1C(N)=O)C(C)C

>  <discrete-label>
class 1

$$$$

Query block: Does the molecule "CCCCCCCCCCCCCCCC(=O)N[C@@H](CCC(=O)NCCCC[C@H](N)C(=O)N[C@@H](CS)C(=O)N[C@@H](CCSC)C(=O)N1CCC[C@H]1C(=O)N[C@@H](CC(C)C)C(=O)N[C@@H](Cc1c[nH]cn1)C(=O)N[C@@H](CO)C(=O)N[C@@H](CCCNC(=N)N)C(=O)N[C@H](C(=O)N1CCC[C@H]1C(=O)N[C@@H](Cc1ccccc1)C(=O)N1CCC[C@H]1C(N)=O)C(C)C)C(=O)O" have recorded half-life at 1560 µM that is 20 min or more?
Result block: class 1

Query block: Quick check, half-life at 1560 µM >= 20 min? "CCCCCCCCCCCCCCCC(=O)N[C@@H](CCC(=O)N[C@@H](CS)C(=O)N[C@@H](CCSC)C(=O)N1CCC[C@H]1C(=O)N[C@@H](CC(C)C)C(=O)N[C@@H](Cc1c[nH]cn1)C(=O)N[C@@H](CO)C(=O)N[C@@H](CCCNC(=N)N)C(=O)N[C@H](C(=O)N1CCC[C@H]1C(=O)N[C@@H](Cc1ccccc1)C(=O)N1CCC[C@H]1C(N)=O)C(C)C)C(=O)O"
Result block: class 1
